- System: NCI-H226 lung
- assay: NCI-60 one-dose screen, 48 h (100 = growth as untreated, 0 = no growth, -100 = all killed)
- condition_info: 10 µM unless noted
The panel holds about 83,000 compounds, 20% with a hit somewhere; the sample as a whole holds those more often.
Quick reference for growth among some compounds
State just the number; it will be interpreted in %.

The cases that follow already have their growth on record.
compound	recorded_endpoint	unit_annotation	recorded_value
O=C(COc1cccc2cccnc12)Nc1ccc(C(=O)/C=C/c2ccc(Cl)cc2)cc1	growth	%	94.6
CC1(C)CC[C@]2(C(=O)O)CC[C@]3(C)C(=CCC4[C@@]5(C)C[C@@H](O)[C@@H]6OC(c7ccccc7O)OC[C@@]6(C)C5CC[C@]43C)C2C1 (some centres not stated)	growth	%	87

Exam item: Annotate the compound `C/C(=N/Nc1nc(N/N=C(/C)c2ccc([N+](=O)[O-])cc2)nc(N2CCOCC2)n1)c1ccc([N+](=O)[O-])cc1` with its measured growth.
Marked response: 41.9

Exam item: Please report growth for the following compound: `CC1(C)CC[C@]2(C(=O)N3CCCN(CC#N)CC3)CC[C@]3(C)C(=CC[C@@H]4[C@@]5(C)CC[C@H](O)C(C)(C)[C@@H]5CC[C@]43C)[C@H]2C1`
Marked response: 71.1

Exam item: Find the measured growth of `COc1ccc(-c2nc3cc(Cl)c(Cl)cc3n2CC(=O)N=Nc2c(O)[nH]c3ccc(Br)cc23)cc1` and report it.
Marked response: -16.2

Exam item: Dear colleague, please send me the reported growth for `COc1ccc(-c2nc3cc(Cl)c(Cl)cc3n2CC(=O)N=Nc2c(O)[nH]c3ccc(Cl)cc23)cc1` when you can.
Marked response: -8.97

Exam item: In one line, give reported growth of the entry `Oc1ccc(CSc2nnc(-c3ccc(Br)cc3)n2-c2ccccc2)c2cccnc12` .
Marked response: 44.7

Exam item: Fill in reported growth for this entry: `O=C1NC(=O)c2c1c1c3ccccc3ccc1c1[nH]c3ccccc3c21`
Marked response: 12.2

Exam item: Query growth for `C=C(C)[C@@H]1CC[C@]2(C(=O)NCCCN(CCC#N)CCC#N)CC[C@]3(C)[C@H](CC[C@@H]4[C@@]5(C)CCC(=O)C(C)(C)[C@@H]5CC[C@]43C)[C@@H]12`
Marked response: 94

Exam item: Entry `O=C1CSC(=O)N1Cc1cc2ccccc2nc1Cl` needs its growth filled in; supply it.
Marked response: 102

Exam item: Consider the compound `CCCCCCNC(=O)Oc1ccc(/C(=C(/C)c2ccccc2)c2ccc(OCCN(C)C)cc2)cc1` and give its recorded growth.
Marked response: 89.6

Exam item: Dear colleague, please send me the reported growth for `CCNC(=NCCCN(C)C)N/C(N)=N/c1nc2ccccc2s1` when you can.
Marked response: 92.7

Exam item: State its growth for this compound: `CC(C)C[C@H]1C(=O)O[C@H](C(C)C)C(=O)N(C)[C@@H](C(C)C)C(=O)O[C@H](C(C)C)C(=O)N(C)[C@@H](C(C)C)C(=O)O[C@H](C(C)C)C(=O)N1C`
Marked response: 20.5

Exam item: Please give measured growth of the following entry: `Cc1ccc(-c2cc3nc(C(Cl)Cl)nc(-c4ccccc4)n3n2)cc1`
Marked response: 103

Exam item: // Input: `C#C[C@]1(O)CC[C@H]2[C@@H]3CC=C4c5sc(-c6ccccn6)nc5CC[C@]4(C)[C@H]3CC[C@@]21C` . Output its growth only.
Marked response: 94.4

Exam item: Read off the recorded growth for `CN(c1ccc(F)cc1)S(=O)(=O)c1ccc(-c2cnc(C3CC3)o2)cc1`
Marked response: 60.5

Exam item: Give growth for the following compound: `Nc1nc(-c2cccc([N+](=O)[O-])c2)c(N=Nc2ccccc2Cl)s1`
Marked response: 70.4
